test: AUC in plasma of healthy human at 0.3 […], iv after 3 hrs; format: ADME, organism-based; design: time < 3 hr, route intravenous
assay_metric: AUC at 3 h

Looking for the measured AUC at 3 h of C[C@@H](O)[C@H]1C(=O)N2C(C(=O)[O-])=C(SC3Cn4cnc[n+]4C3)[C@H](C)[C@H]12 (stereo partly specified) , can you help?
25400 ng·h/mL

###

test: Cmax in epithelial lining fluid of healthy human at 0.3 […], iv after 0.5 hrs; assay type: ADME, organism-based; design: route intravenous
assay_metric: Cmax

Looking for the measured Cmax of C[C@@H](O)[C@H]1C(=O)N2C(C(=O)[O-])=C(SC3Cn4cnc[n+]4C3)[C@H](C)[C@H]12 (stereo partly specified) [BIAPENEM] , can you help?
2350 ng/mL

From: ChEMBL document CHEMBL1649497
